tested on: MDA-N; test: NCI tumour cell line growth inhibition, 48 h
RECORDED_METRIC: TGI

Reference set, count: 5
Looking up C=CCN1C(=O)CC(=O)N(NC2=NNC3(C(=O)N2)c2ccccc2-c2ccccc23)C1=S , I found its TGI recorded as > 100 µM

Looking up C[n+]1c2ccccc2c(C(=O)Nc2ccc(S(=O)(=O)Nc3ncccn3)cc2)c2ccccc21 , I found its TGI recorded as > 100 µM

Looking up CCC(=C/[C@H](C)C/C=C/C(C)=C/[C@@H](C)C(=O)[C@@H](C)[C@H](O)[C@@H](C)CC)/C=C/[C@H]1CC=CC(=O)O1 , I found its TGI recorded as 0.00339 µM

Looking up COC(=O)C(=O)C(C(=O)C(=O)Nc1ccc(C)c(C)c1)c1nc2ccc([N+](=O)[O-])cc2[nH]c1=O (centres undefined) , I found its TGI recorded as > 100 µM

Looking up c1cc2c(cc1[C@@H]1OC[C@@H]3[C@H]1CO[C@H]3c1ccc3c(c1)OCO3)OCO2 , I found its TGI recorded as > 100 µM

Continuing:
Looking up C[n+]1c(-c2ccc(/C=N/NC(=O)C(=O)N/N=C/c3ccc(-c4cn5ccccc5[n+]4C)cc3)cc2)cn2ccccc21 , I found its TGI recorded as > 100 µM

Looking up CC1CCCN1CCCOC(=O)c1ccc(OC2C=CCCC2)cc1 (centres undefined) , I found its TGI recorded as > 100 µM

====

tested on: OVCAR-8 ovarian; assay: NCI tumour cell line growth inhibition, 48 h
RECORDED_METRIC: TGI (µM)
Numeric answer only, unit µM assumed.

Reference set, count: 3
Looking up COc1cc2c(cc1OCCCOc1ccc(-c3cc4ccccc4c4ccccc34)cc1)N=C[C@@H]1CCCN1C2=O , I found its TGI recorded as 1.98

Looking up COC(=O)c1ccc2[nH]c(O)c(C(=Nc3ccc(N(C)C(=O)CN4CCN(C)CC4)cc3)c3ccccc3)c2c1 , I found its TGI recorded as 7.1

Looking up CC1=C2[C@@H](CC1)[C@]1(C)O[C@@](C3CC3)(C[C@H]1OC(=O)CO)[C@H]2OC(=O)/C=C/c1ccccc1 , I found its TGI recorded as 15.4

Continuing:
Looking up N#CC(NNC(=O)c1ccccc1O)c1c(O)ccc2ccccc12 (centres undefined) , I found its TGI recorded as 25.9

Looking up CC1=C(CNO)C2=C(C)C3(CC3)[C@@](C)(O)C(=O)C2=C1 , I found its TGI recorded as 36

====

test system: NCI-H460 lung
Lab note: assign the record to one of active, inactive

Ask: Answer briefly: the call reported for c1cncc(C2ONC3=NCCN32)c1 (stereo unspecified) in this assay.
Result: inactive

Continuing:
Ask: Answer briefly: the call reported for Nc1ncc(C2[C@H](CNC(=O)c3cc(Br)c[nH]3)C(CNC(=O)c3cc(Br)c[nH]3)[C@@H]2c2cnc(N)[nH]2)[nH]1 (stereo partly specified) in this assay.
Result: inactive

Ask: Answer briefly: the call reported for O=C(c1ccccc1)C(Br)C(Br)c1ccccc1 (stereo unspecified) in this assay.
Result: inactive

Ask: Answer briefly: the call reported for COc1cc2c(cc1OCCCOc1ccc(-c3cc4ccccc4c4ccccc34)cc1)N=C[C@@H]1CCCN1C2=O in this assay.
Result: inactive

Ask: Answer briefly: the call reported for CC1=C(CNO)C2=C(C)C3(CC3)[C@@](C)(O)C(=O)C2=C1 in this assay.
Result: active

Ask: Answer briefly: the call reported for COc1cc2cc3c(c(O)c2c(O)c1-c1c(OC)cc2cc4c(c(O)c2c1O)C(=O)O[C@H](C)C4)C(=O)O[C@H](C)C3 in this assay.
Result: inactive

====

system: SK-OV-3 ovarian; experiment: NCI tumour cell line growth inhibition, 48 h
The following compounds are shown together with reported TGI values.

Reference set, count: 6
Looking up NC(N)=NCCCC(NC(=O)c1c2ccccc2nc2ccccc12)C(=O)O (configuration not stated) , I found its TGI recorded as > 100 µM

Looking up N#CCCN(CCC#N)c1ccc(C=Nc2ccc(F)cc2)cc1 , I found its TGI recorded as > 100 µM

Looking up COc1ccc(C23OCC(Cc4cc(OC)c(OC)cc42)C3CO)cc1OC (configuration not stated) , I found its TGI recorded as > 100 µM

Looking up CCOC(=O)c1csc(NC(=O)C(C)N2CCOCC2)n1 (configuration not stated) , I found its TGI recorded as > 100 µM

Looking up O=C(O)CCC1NC(/C(=C/c2ccccc2O)NC(=O)c2ccccc2)OC1=O (configuration not stated) , I found its TGI recorded as > 100 µM

Looking up Cc1cc(Nc2ccc(Cl)cc2)nc(NCCCNc2ccnc3cc(Cl)ccc23)n1 , I found its TGI recorded as 3.01 µM

Consider the additional compound presented here.
Looking up CCc1cc2c(c3c1CCCC3=O)CC1(C2)Cc2cc(CC)c3c(c2C1)C(=O)CCC3 , I found its TGI recorded as > 100 µM

====

The following molecules are shown together with reported TGI values.
tested on: HCC-2998 colon; experiment: NCI tumour cell line growth inhibition, 48 h
Numeric answer only, unit µM assumed.

Reference set, count: 2
Response field TGI (HCC-2998 colon) for item CN(C)c1ccc(C2CC(C)(O)Oc3cc4c(cc32)OCO4)cc1 (configuration not stated) : 95.1

Response field TGI (HCC-2998 colon) for item CCC1CN2CCc3c([nH]c4ccccc34)[C@@](C(=O)OC)(c3cc4c(cc3OC)N(C)C3C(O)(C(=O)OC)C(C(=O)OC)C5(CC)C=CCN6CCC43C65)C[C@@H](C2)[C@@H]1C(C)(C)C (some centres not stated) : 1.52

Consider the additional molecule presented here.
Response field TGI (HCC-2998 colon) for item Cc1ccc(-n2cc(-c3ccc(Cl)cc3)c3c(=N)n(N)cnc32)cc1 : 19.2

====

The following compounds are shown together with reported GI50 values.
tested on: TK-10 renal; assay: NCI tumour cell line growth inhibition, 48 h

Looking up NC(=O)c1ncn(C2OC(CO)C(O)C2O)c1N (stereo not given) , I found its GI50 recorded as > 100 µM

Looking up COc1cc(/C=C2\C(=O)N(C)c3ccccc32)cc(OC)c1OC , I found its GI50 recorded as 31.1 µM

Looking up NC(N)=N/N=C(/c1ccccc1)c1ccccc1F , I found its GI50 recorded as 9.86 µM

Looking up c1cncc([O][Ge]([O]c2cccnc2)([O]c2cccnc2)[O]c2cccnc2)c1 , I found its GI50 recorded as > 100 µM

Looking up CC(=O)[O-].[Mn+3].[O-]c1ccc(Cl)cc1C=NCCN=Cc1cc(Cl)ccc1[O-] , I found its GI50 recorded as > 100 µM

Looking up C=C(Cn1c2ccccc2c(=O)c2ccccc21)c1ccc(C(=O)Nc2ccccc2N)cc1 , I found its GI50 recorded as > 28.9 µM

Looking up COc1cc(OC)cc(-c2ccc(-c3ccc(C(=N)N)cn3)s2)c1 , I found its GI50 recorded as 2.06 µM

Looking up O=C1CCS/C(=N/S(=O)(=O)c2ccc(N3N=C4c5ccccc5CC4C3c3cccs3)cc2)N1Cc1ccccc1 (stereo not given) , I found its GI50 recorded as 17.7 µM

Continuing:
Looking up OCC#Cc1ccccc1C#Cc1ccc(C#Cc2ccccc2)cc1 , I found its GI50 recorded as 13 µM

Looking up N#CCC1(n2cc(-c3ncnc4[nH]ccc34)cn2)CN(C2CCN(C(=O)c3ccnc(C(F)(F)F)c3F)CC2)C1 , I found its GI50 recorded as 55.3 µM

Looking up c1cncc(C2ONC3=NCCN32)c1 (stereo not given) , I found its GI50 recorded as 10.9 µM

Looking up O=C(OC[C@@H]1CO1)c1cccc2c(=O)c3ccccc3[nH]c12 , I found its GI50 recorded as 0.646 µM

Looking up CC1=C2[C@@H](CC1)[C@]1(C)O[C@@](C3CC3)(C[C@H]1OC(=O)CO)[C@H]2OC(=O)/C=C/c1ccccc1 , I found its GI50 recorded as 18.7 µM

Looking up O=C(/C=C(\[O-])c1ccccc1)CCCCCCC(=O)/C=C(\[O-])c1ccccc1.O=C(/C=C(\[O-])c1ccccc1)CCCCCCC(=O)/C=C(\[O-])c1ccccc1.O=C(/C=C(\[O-])c1ccccc1)CCCCCCC(=O)/C=C(\[O-])c1ccccc1.[Nd+3].[Nd+3] , I found its GI50 recorded as > 50 µM

Looking up CCCCCCCCCCCCOC1C(C(CC(=O)N2CCN(Cc3ccc4c(c3)OCO4)CC2)NS(=O)(=O)c2cc(Cl)cc(Cl)c2)OC2OC(C)(C)OC21 (stereo not given) , I found its GI50 recorded as 58 µM

Looking up NC(N)=N/N=C/c1c(-c2ccncc2)nc2sc(Cl)cn12 , I found its GI50 recorded as 5.26 µM

Looking up CCN(CC)CCNc1ccc([N+](=O)[O-])c2sc3cc(Cl)ccc3c(=O)c12 , I found its GI50 recorded as 2.97 µM

Looking up O=C(C(=O)c1cc(Br)ccc1O)c1cc(Br)ccc1O , I found its GI50 recorded as 3.44 µM

Looking up C#Cc1cccc(NC(=O)C2CCCN(C(=O)CCl)C2)c1 (stereo not given) , I found its GI50 recorded as > 82.5 µM

Looking up CNCc1ccc(-c2[nH]c3cc(F)cc4c3c2CCNC4=O)cc1 , I found its GI50 recorded as 29.2 µM
